Measured viability, T/C, listed per entry.
# System: 186277-243-T-J2-PDC spheroids with HUVEC/MSC, viability
# Assay Procedure: Anticancer human tumor 186277-243-T-J2-PDC patient-derived colon adenocarcinoma cell line growth inhibition [CLK]
# Test Context: second compound 10 µM; first compound 1 µM; stronger effect = lower value
Measurement Label: viability, T/C (%)

[
  {
    "Molecule": "CC1COCCN1c1cc(C2(S(C)(=N)=O)CC2)nc(-c2ccnc3[nH]ccc23)n1 (stereo not given) + CN1CCN(c2cc(C(=O)Nc3cc4cc(-c5cnn(C)c5)ccc4cn3)ccn2)CC1",
    "Result Unit": "%",
    "Assay Value": 1.26
  },
  {
    "Molecule": "CCc1c2c(nc3ccc(O)cc13)-c1cc3c(c(=O)n1C2)COC(=O)[C@]3(O)CC + CNC(=O)c1ccc(Nc2nc(OC3CCCC3)c3c(-c4ccc5nc(C)oc5c4)c[nH]c3n2)c(OC)c1",
    "Result Unit": "%",
    "Assay Value": 4.09
  },
  {
    "Molecule": "CC1(C)CCC(CN2CCN(c3ccc(C(=O)NS(=O)(=O)c4ccc(NCC5CCOCC5)c([N+](=O)[O-])c4)c(Oc4cnc5[nH]ccc5c4)c3)CC2)=C(c2ccc(Cl)cc2)C1 + CNC(=O)c1ccc(Nc2nc(OC3CCCC3)c3c(-c4ccc5nc(C)oc5c4)c[nH]c3n2)c(OC)c1",
    "Result Unit": "%",
    "Assay Value": 36
  },
  {
    "Molecule": "CC(CO)NC(=O)c1cc(-c2ccc(Cl)cc2)nn(-c2cnn(C)c2)c1=O (stereo not given) + CNC(=O)c1ccc(Nc2nc(OC3CCCC3)c3c(-c4ccc5nc(C)oc5c4)c[nH]c3n2)c(OC)c1",
    "Result Unit": "%",
    "Assay Value": 31.4
  },
  {
    "Molecule": "COc1cccc2c1C(=O)c1c(O)c3c(c(O)c1C2=O)CC(O)(C(=O)CO)CC3OC1CC(N)C(O)C(C)O1 (stereo not given) + CNC(=O)c1ccc(Nc2nc(OC3CCCC3)c3c(-c4ccc5nc(C)oc5c4)c[nH]c3n2)c(OC)c1",
    "Result Unit": "%",
    "Assay Value": 2.28
  },
  {
    "Molecule": "O=c1[nH]cc(F)c(=O)[nH]1 + CN1CCN(c2cc(C(=O)Nc3cc4cc(-c5cnn(C)c5)ccc4cn3)ccn2)CC1",
    "Result Unit": "%",
    "Assay Value": 1.07
  },
  {
    "Molecule": "CC1COCCN1c1cc(C2(S(C)(=N)=O)CC2)nc(-c2ccnc3[nH]ccc23)n1 (stereo not given) + CNC(=O)c1ccc(Nc2nc(OC3CCCC3)c3c(-c4ccc5nc(C)oc5c4)c[nH]c3n2)c(OC)c1",
    "Result Unit": "%",
    "Assay Value": 24.9
  },
  {
    "Molecule": "CCc1c2c(nc3ccc(O)cc13)-c1cc3c(c(=O)n1C2)COC(=O)[C@]3(O)CC + CN1CCN(c2cc(C(=O)Nc3cc4cc(-c5cnn(C)c5)ccc4cn3)ccn2)CC1",
    "Result Unit": "%",
    "Assay Value": 0.26
  },
  {
    "Molecule": "COC1C=CCC(C)C(C)S(=O)(=O)NC(=O)c2ccc3c(c2)N(CC2CCC21)CC1(CCCc2cc(Cl)ccc21)CO3 (stereo not given) + CNC(=O)c1ccc(Nc2nc(OC3CCCC3)c3c(-c4ccc5nc(C)oc5c4)c[nH]c3n2)c(OC)c1",
    "Result Unit": "%",
    "Assay Value": 11.9
  },
  {
    "Molecule": "CC(Nc1ccc2c(c1)OCCn1cc(N3C(=O)OCC3C(F)F)nc1-2)C(N)=O (stereo not given) + CN1CCN(c2cc(C(=O)Nc3cc4cc(-c5cnn(C)c5)ccc4cn3)ccn2)CC1",
    "Result Unit": "%",
    "Assay Value": 0.87
  }
]

###

Measured viability, T/C, listed per entry.
# System: 186277-243-T-J2-PDC spheroids with HUVEC/MSC, viability
# Assay Procedure: Anticancer human tumor 186277-243-T-J2-PDC cell line growth inhibition [CLK];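 also: compound exposure lasted seven days before readout; 100% = DMSO vehicle control wells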
# Test Context: second compound 10 µM; first compound 3.16 µM; stronger effect = lower value

[
  {
    "Molecule": "COC1C=CCC(C)C(C)S(=O)(=O)NC(=O)c2ccc3c(c2)N(CC2CCC21)CC1(CCCc2cc(Cl)ccc21)CO3 (stereo not given) + CN1CCN(c2cc(C(=O)Nc3cc4cc(-c5cnn(C)c5)ccc4cn3)ccn2)CC1",
    "viability, T/C": "1.39%"
  },
  {
    "Molecule": "C=CC(=O)N1CCN(c2nc(=O)n(-c3c(C)ccnc3C(C)C)c3nc(-c4c(O)cccc4F)c(F)cc23)C(C)C1 (stereo not given) + CN1CCN(c2cc(C(=O)Nc3cc4cc(-c5cnn(C)c5)ccc4cn3)ccn2)CC1",
    "viability, T/C": "2.23%"
  },
  {
    "Molecule": "Nc1ccccc1NC(=O)c1ccc(CNC(=O)OCc2cccnc2)cc1 + CNC(=O)c1ccc(Nc2nc(OC3CCCC3)c3c(-c4ccc5nc(C)oc5c4)c[nH]c3n2)c(OC)c1",
    "viability, T/C": "10.1%"
  },
  {
    "Molecule": "CC1(C)CCC(CN2CCN(c3ccc(C(=O)NS(=O)(=O)c4ccc(NCC5CCOCC5)c([N+](=O)[O-])c4)c(Oc4cnc5[nH]ccc5c4)c3)CC2)=C(c2ccc(Cl)cc2)C1 + CNC(=O)c1ccc(Nc2nc(OC3CCCC3)c3c(-c4ccc5nc(C)oc5c4)c[nH]c3n2)c(OC)c1",
    "viability, T/C": "35.9%"
  },
  {
    "Molecule": "CC(CO)NC(=O)c1cc(-c2ccc(Cl)cc2)nn(-c2cnn(C)c2)c1=O (stereo not given) + CNC(=O)c1ccc(Nc2nc(OC3CCCC3)c3c(-c4ccc5nc(C)oc5c4)c[nH]c3n2)c(OC)c1",
    "viability, T/C": "34.3%"
  },
  {
    "Molecule": "Nc1ccccc1NC(=O)c1ccc(CNC(=O)OCc2cccnc2)cc1 + CN1CCN(c2cc(C(=O)Nc3cc4cc(-c5cnn(C)c5)ccc4cn3)ccn2)CC1",
    "viability, T/C": "2.19%"
  },
  {
    "Molecule": "CC(CO)NC(=O)c1cc(-c2ccc(Cl)cc2)nn(-c2cnn(C)c2)c1=O (stereo not given) + CN1CCN(c2cc(C(=O)Nc3cc4cc(-c5cnn(C)c5)ccc4cn3)ccn2)CC1",
    "viability, T/C": "0.8%"
  },
  {
    "Molecule": "CC1COCCN1c1cc(C2(S(C)(=N)=O)CC2)nc(-c2ccnc3[nH]ccc23)n1 (stereo not given) + CNC(=O)c1ccc(Nc2nc(OC3CCCC3)c3c(-c4ccc5nc(C)oc5c4)c[nH]c3n2)c(OC)c1",
    "viability, T/C": "13%"
  },
  {
    "Molecule": "C#Cc1c(F)ccc2cc(O)cc(-c3ncc4c(N5CC6CCC(C5)N6)nc(OCC56CCCN5CC(F)C6)nc4c3F)c12 (stereo not given) + CN1CCN(c2cc(C(=O)Nc3cc4cc(-c5cnn(C)c5)ccc4cn3)ccn2)CC1",
    "viability, T/C": "1.33%"
  },
  {
    "Molecule": "O=c1[nH]cc(F)c(=O)[nH]1 + CNC(=O)c1ccc(Nc2nc(OC3CCCC3)c3c(-c4ccc5nc(C)oc5c4)c[nH]c3n2)c(OC)c1",
    "viability, T/C": "27.6%"
  },
  {
    "Molecule": "C=C(F)C(=O)N1CCN(c2nc(OCC3CCCN3C)nc3c2CCN(c2cccc4cccc(Cl)c24)C3)CC1CC#N (stereo not given) + CN1CCN(c2cc(C(=O)Nc3cc4cc(-c5cnn(C)c5)ccc4cn3)ccn2)CC1",
    "viability, T/C": "1.52%"
  },
  {
    "Molecule": "CC(Nc1ccc2c(c1)OCCn1cc(N3C(=O)OCC3C(F)F)nc1-2)C(N)=O (stereo not given) + CN1CCN(c2cc(C(=O)Nc3cc4cc(-c5cnn(C)c5)ccc4cn3)ccn2)CC1",
    "viability, T/C": "0.87%"
  },
  {
    "Molecule": "CC1COCCN1c1cc(C2(S(C)(=N)=O)CC2)nc(-c2ccnc3[nH]ccc23)n1 (stereo not given) + CN1CCN(c2cc(C(=O)Nc3cc4cc(-c5cnn(C)c5)ccc4cn3)ccn2)CC1",
    "viability, T/C": "1.01%"
  },
  {
    "Molecule": "CC1(C)CCC(CN2CCN(c3ccc(C(=O)NS(=O)(=O)c4ccc(NCC5CCOCC5)c([N+](=O)[O-])c4)c(Oc4cnc5[nH]ccc5c4)c3)CC2)=C(c2ccc(Cl)cc2)C1 + CN1CCN(c2cc(C(=O)Nc3cc4cc(-c5cnn(C)c5)ccc4cn3)ccn2)CC1",
    "viability, T/C": "0.55%"
  },
  {
    "Molecule": "COc1cccc2c1C(=O)c1c(O)c3c(c(O)c1C2=O)CC(O)(C(=O)CO)CC3OC1CC(N)C(O)C(C)O1 (stereo not given) + CNC(=O)c1ccc(Nc2nc(OC3CCCC3)c3c(-c4ccc5nc(C)oc5c4)c[nH]c3n2)c(OC)c1",
    "viability, T/C": "3.08%"
  },
  {
    "Molecule": "O=C(c1cc(Cc2n[nH]c(=O)c3ccccc23)ccc1F)N1CCN(C(=O)C2CC2)CC1 + CN1CCN(c2cc(C(=O)Nc3cc4cc(-c5cnn(C)c5)ccc4cn3)ccn2)CC1",
    "viability, T/C": "1.1%"
  },
  {
    "Molecule": "C#Cc1c(F)ccc2cc(O)cc(-c3ncc4c(N5CC6CCC(C5)N6)nc(OCC56CCCN5CC(F)C6)nc4c3F)c12 (stereo not given) + CNC(=O)c1ccc(Nc2nc(OC3CCCC3)c3c(-c4ccc5nc(C)oc5c4)c[nH]c3n2)c(OC)c1",
    "viability, T/C": "6.36%"
  },
  {
    "Molecule": "C=C(F)C(=O)N1CCN(c2nc(OCC3CCCN3C)nc3c2CCN(c2cccc4cccc(Cl)c24)C3)CC1CC#N (stereo not given) + CNC(=O)c1ccc(Nc2nc(OC3CCCC3)c3c(-c4ccc5nc(C)oc5c4)c[nH]c3n2)c(OC)c1",
    "viability, T/C": "27.1%"
  },
  {
    "Molecule": "CC(=O)O[C@H]1C(=O)[C@@]2(C)[C@H]([C@H](OC(=O)c3ccccc3)[C@]3(O)C[C@H](OC(=O)[C@H](O)[C@@H](NC(=O)c4ccccc4)c4ccccc4)C(C)=C1C3(C)C)[C@]1(OC(C)=O)CO[C@@H]1C[C@@H]2O + CN1CCN(c2cc(C(=O)Nc3cc4cc(-c5cnn(C)c5)ccc4cn3)ccn2)CC1",
    "viability, T/C": "1.3%"
  },
  {
    "Molecule": "O=C(c1cc(Cc2n[nH]c(=O)c3ccccc23)ccc1F)N1CCN(C(=O)C2CC2)CC1 + CNC(=O)c1ccc(Nc2nc(OC3CCCC3)c3c(-c4ccc5nc(C)oc5c4)c[nH]c3n2)c(OC)c1",
    "viability, T/C": "39.9%"
  }
]
